Brain: Blood Ratio by entry:
- Experimental details: Tissue distribution (biodistribution) of radioiodinated compound in the rat
- Assay context: rat, iv, 5 min
Returns: the value as a bare number; no unit string appended.

Example cases with answers are listed next.
| Molecule | Recorded measurement |
| --- | --- |
| OC(Cc1ccc([125I])cc1)CN1CCC(c2ccccc2)CC1 (single isomer, unassigned; (-)) [(-)-4-[^125 l]HIPP] | 12.3 |
| OC(CN1CCC(c2ccccc2)CC1)c1ccc([125I])cc1 (single isomer, unassigned; (-)) [(-)-[^125 l]13] | 8.7 |
| OC(CN1CCC(c2ccccc2)CC1)c1ccc([125I])cc1 (single isomer, unassigned; (+)) [(+)-[^125 l]13] | 14.8 |
| OC(Cc1ccc([125I])cc1)CN1CCC(c2ccccc2)CC1 (single isomer, unassigned; (+)) [(+)-4-[^125 l]HIPP] | 15.2 |
| OC(Cc1cccc([125I])c1)CN1CCC(c2ccccc2)CC1 (single isomer, unassigned; (-)) [(-)-[^125 l]12] | 9.0 |

Kindly indicate its recorded Brain: Blood Ratio. Item: OC(Cc1cccc([125I])c1)CN1CCC(c2ccccc2)CC1 (single isomer, unassigned; (+)) [(+)-[^125 l]12]
13.1

====

- Experimental details: Blocking experiments: inhibition of radiotracer accumulation in the rat by coadministered compound
- Format: in vivo, rat (male Wistar)
- Assay context: rat, kidney, iv, rat, iv, 60 min, + (+)-7 HCl 0.53 mg/kg; read-out: radioactivity in kidney
Property measured: tissue uptake at 1 h (%ID/g)
Return type: number; implicit unit %ID/g.

Kindly indicate its recorded tissue uptake at 1 h. Item: OC(Cc1ccc([125I])cc1)CN1CCC(c2ccccc2)CC1 (single isomer, unassigned; (-)) [(-)-4-[^125 l]HIPP]
0.46

====

- Experimental details: Blocking experiments: inhibition of radiotracer accumulation in the rat by coadministered compound
- Assay type: in vivo, rat (male Wistar)
- Assay context: rat, lung, iv, rat, iv, 60 min, + (dl)-vesamicol HCl 0.3 (Table 3) or 0.31 mg/kg; read-out: radioactivity in lung
Property measured: tissue uptake at 1 h (%ID/g)
Return type: number; implicit unit %ID/g.

Example cases with answers are listed next.
| Compound | Unit name | tissue uptake at 1 h |
| --- | --- | --- |
| OC(Cc1cccc([125I])c1)CN1CCC(c2ccccc2)CC1 (single isomer, unassigned; (+)) [(+)-[^125 l]12] | %ID/g | 0.71 |
| OC(Cc1ccc([125I])cc1)CN1CCC(c2ccccc2)CC1 (single isomer, unassigned; (-)) [(-)-4-[^125 l]HIPP] | %ID/g | 0.95 |

Now turn to the next compound.
Kindly indicate its recorded tissue uptake at 1 h. Item: OC(CN1CCC(c2ccccc2)CC1)c1ccc([125I])cc1 (single isomer, unassigned; (+)) [(+)-[^125 l]13]
0.42

====

- Experimental details: Tissue distribution (biodistribution) of radioiodinated compound in the rat
- Assay context: rat, blood, iv, radioactivity in blood, 180 min
Property measured: tissue uptake at 3 h (%ID/g)
Return type: number; implicit unit %ID/g.

Kindly indicate its recorded tissue uptake at 3 h. Item: OC(Cc1cccc([125I])c1)CN1CCC(c2ccccc2)CC1 (single isomer, unassigned; (+)) [(+)-[^125 l]12]
0.08
